System: CCRF-CEM leukemia
Test: NCI tumour cell line growth inhibition, 48 h
Item-by-item account of TGI

Below: 5 molecules and their reported TGI.
CN(C)c1ccc([O-])cc1.CN(C)c1ccc([O-])cc1.CN(C)c1ccc([O-])cc1.CN(C)c1ccc([O-])cc1.[Ti+4] = > 100 µM
CC(=O)N[C@@H]1C(O)CN2C(=O)C(=O)O[C@H](C(O)CO)[C@@H]12 (some centres not stated) = > 100 µM
O=C(Nc1cccs1)c1c(O)[nH]c(=S)[nH]c1=O = > 100 µM
COc1cc2c(c(OC)c1OC)-c1ccc(N)c(=O)cc1[C@@H](NC(C)=O)CC2 = > 100 µM
Cc1cccc2c1[nH]c1[nH]c(=O)[nH]c(=O)c12 = > 100 µM

TGI in this record for COc1ccc2c(c1)C(N)=C(c1ccccc1)C2=O : > 100 µM

Just so you know, measured TGI for FC(F)(F)c1cc(-c2nnc3n2N=C(N2CCCC2)CS3)cc(C(F)(F)F)c1 came out at > 50 µM

// N=C1N(S(=O)(=O)c2ccccc2)[C@@H](Cc2ccccc2)[C@H](c2ccccc2)C1(c1ccccc1)c1ccccc1 : TGI value = > 100 µM

For this molecule ( COc1cccc(CC(C)NCC(O)c2ccc(O)c(O)c2)c1 (configuration not stated) ), measured TGI is > 100 µM

Given item Cc1ccc(-c2cc(-c3ccco3)c(C#N)c(=O)[nH]2)cc1 , the value recorded as its TGI is > 100 µM

----------
Test system: U251 CNS
Assay: NCI tumour cell line growth inhibition, 48 h
The following compounds are listed with their measured TGI values.

O=C(O)COc1ccc(O)c2c1C(=O)CCCC2=O = > 100 µM

Form: compound = N#CC(C#N)=C1C(C#N)=C(N)NC12OCCO2 ; TGI = > 100 µM

Record CC(=O)NNc1nc(C)c(C(=O)NNC(=O)C(=O)Nc2c(C)cccc2C)s1 , field TGI: > 100 µM

According to the records, this compound CC1(C)CC[C@H](Nc2ncc(C(F)(F)F)c(-c3c[nH]c4c(P(C)(C)=O)c(C#N)ccc34)n2)CN1 displays TGI of 23.7 µM

Per the records, this compound ( CCOP(=O)(OCC)C(Nc1cccc(F)c1)c1ccccc1 (stereo unspecified) ) has TGI equal to > 100 µM

What the record says about O=[N+]([O-])c1c(Br)cc(Br)c2c1Nc1c(ccc(Cl)c1Cl)S2 : TGI is 35.1 µM

----------
System: NCI-H23 lung
Assay: NCI tumour cell line growth inhibition, 48 h
Is TGI at least 20 µM? Then Criterion met. If not, Criterion not met.

Use the examples below as a reference point.
O=C1CCC2(CCO1)OCCO2 = Criterion met
CCCCc1c2c(nc3c1CCc1cc4cc5c(nc4nc1-3)-c1nc3c(c(CCCC)c1CC5)CCCC3)CCCC2 = Criterion met
COc1ccccc1N=C(N)N/N=C/c1c[nH]c2ccccc12 = Criterion not met
C1C[OH+]CC[OH+]CCNCC[OH+]CC[OH+]CCN1.[Cl-].[Pt+4] = Criterion met
Cc1cc(=O)n2nc(SCc3ccccc3)sc2n1 = Criterion met
c1ccc(CCN2CCc3[nH]c4ccccc4c3C2)cc1 = Criterion met
COc1cc(CCN)c2c(c1OC)SSSSS2 = Criterion not met
CN(C)c1nc(N(C)C)nc(N(C)C23CC4CC(CC(C4)C2)C3)n1 = Criterion met
CCOC(=O)C1=C(c2ccccc2)N(C)c2ccccc2S1 = Criterion met
CCN(CC)CCNc1ccc([N+](=O)[O-])c2sc3ccccc3c(=O)c12 = Criterion not met

-- ask Decide: is the reported value of TGI for CCCCS(=O)CCC(N)C(=O)O (stereo not given) equal to or greater than 20 µM?
-- reply Criterion met

-- ask Please tell me: is the compound FC(F)(F)c1cc(-c2nnc3n2N=C(N2CCCC2)CS3)cc(C(F)(F)F)c1 at or over 20 µM in terms of TGI?
-- reply Criterion met

-- ask Would you say CCOC(=O)/C(O)=C/c1cc(OC)cc(=O)o1 shows TGI at minimum 20 µM?
-- reply Criterion met

-- ask # bool: TGI of COc1ccc(N2Cc3cnc(Nc4ccccc4)nc3N([C@@H]3CC[C@@H](O)C3)C2=O)cc1 >= 20 µM
-- reply Criterion met

-- ask I'd appreciate it if you could say whether CC(C)=CCC/C(C)=C/CC/C(C)=C/Cc1c(O)c2ccccc2oc1=O has TGI at least equal to 20 µM.
-- reply Criterion met

----------
Measured TGI by item
Tested on: UACC-62 melanoma
Assay: NCI tumour cell line growth inhibition, 48 h
The reply should be a number in µM, with the unit left off.

These recorded examples may help you get a feel for the data.
O=C(/C=C/c1ccccc1)CC1OC(=O)c2ccccc21 (centres undefined) = 66.5
O=C1C=CC(=O)C(CNc2ccc(C(=O)OC34CC5CC(CC(C5)C3)C4)cc2)=C1 = 16.5
COc1cc2c(cc1OCCCC(=O)Nc1cc(C(=O)Nc3cc(C(=O)Nc4cc(C(=O)NCCCN(C)C)n(C)n4)n(C)n3)n(C)n1)N=CC1CCCN1C2=O (centres undefined) = 40.6

# TGI (compound: CCCCc1c2c(nc3c1CCc1cc4cc5c(nc4nc1-3)-c1nc3c(c(CCCC)c1CC5)CCCC3)CCCC2 ) is 52

Entry CCOC(=O)C1=C(C(=O)c2ccc(C)cc2)C(c2cccc([N+](=O)[O-])c2)C(C(=O)c2ccc(C)cc2)=C(C(=O)OCC)N1 , TGI reported as 33.5

----------
Tested on: HL-60(TB) leukemia
Experiment: NCI tumour cell line growth inhibition, 48 h
reported.endpoint: TGI

Solved entries:
CCOC(=O)C1=C(C(=O)c2ccc(C)cc2)C(c2cccc([N+](=O)[O-])c2)C(C(=O)c2ccc(C)cc2)=C(C(=O)OCC)N1 = 96.7 µM
O=[N+]([O-])c1ccc2nc(-c3ccccn3)c(-c3ccccn3)nc2c1 = > 100 µM

Tested on HL-60(TB) leukemia: Clc1ccc(Cc2nc3ccccc3nc2-c2cccc(Br)c2)cc1 . Observed TGI: 6.49 µM

Field TGI (HL-60(TB) leukemia), entry COC[C@@H](N=CN1CCc2cc(OC)c(OC)cc2[C@@H]1C)C(C)(C)C : > 100 µM

Entry CN(C)/N=C/c1cn(C)c(=O)n(C)c1=O , HL-60(TB) leukemia data, TGI value: > 100 µM

----------
Let's look at some compounds and their measured TGI.
Test system: OVCAR-3 ovarian
Assay: NCI tumour cell line growth inhibition, 48 h

Oc1cc(O)c(Oc2cccc(O)c2O)c(O)c1 = > 100 µM

Reported TGI for COc1ccccc1/C=C/[N+](=O)[O-] was 4.67 µM

Sure, the documented TGI for CC1OC(OCC2OC(Oc3c(-c4ccc(O)cc4)oc4cc(O)cc(O)c4c3=O)C(OC3OC(C)C(O)C(O)C3O)C(O)C2O)C(O)C(O)C1O (configuration not stated) is > 100 µM

Memo: COc1ccc(N(C)C(=O)N(C)c2ccc([N+](=O)[O-])cc2)cc1 , reported TGI: 84.2 µM

Looking up O=C(NCc1cccc(C(F)(F)F)c1)c1cc2sccc2nc1C(F)(F)F , I see its TGI listed as > 100 µM

Recorded TGI (compound C/C=C\C(CC(=O)NCCc1cn(C(=O)OCc2ccccc2)c2ccccc12)CC(=O)OC (configuration not stated) ): > 100 µM

----------
Tested on: HOP-62 NSCLC
Assay: NCI tumour cell line growth inhibition, 48 h
reported.endpoint: TGI

Here are 4 compounds together with their reported answers.
CC(=O)OCC1OC(n2c3c(c(-c4cccc5ccccc45)c(C#N)c2=S)CCCC3)C(OC(C)=O)C(OC(C)=O)C1OC(C)=O (stereo not drawn) = > 100 µM
CCCCc1cc2c(C)cc(=O)oc2c(O)c1O = 65.8 µM
CC1OC2=N[C@@H]1C(=O)N[C@@H](C(C)C)C1=N[C@H](C(=O)N[C@@H](C(C)C)C3=N[C@H](C(=O)N[C@@H](C(C)C)C4=N[C@H](C(=O)N[C@H]2C(C)C)C(C)O4)C(C)O3)C(C)O1 (stereo partly drawn) = > 10 µM
COc1ccc(-c2nc3sc(-c4ccc(Cl)cc4)cn3n2)cc1 = > 50 µM

Record summary for COc1ccccc1/C=C/[N+](=O)[O-] : reported TGI = 7.12 µM

For COc1ccc(C2SCC(=O)N2NC(=O)C(O)c2ccccc2)cc1OC (stereo not drawn) the compound record lists TGI as > 100 µM

The compound identified as Cc1c(S(C)(=O)=O)c(-c2cc(F)cc(N3CCN(c4ccc(NS(=O)(=O)c5ccc(N[C@H](CCN6CCC(C(=O)OCCCP(=O)(O)O)CC6)CSc6ccccc6)c(S(=O)(=O)C(F)(F)F)c5)cc4)CC3)c2)c(-c2ccc(Cl)cc2)n1C(C)C registered its TGI at > 100 µM

// TGI value for CCCCCCCCCCCCCCN : > 100 µM
